Reported TGI values are given for each entry in this list.
Test system: MALME-3M melanoma
assay_details: NCI tumour cell line growth inhibition, 48 h

Example entries begin here.
C1=Cc2cccc3occ(c23)C=C1 : > 100 µM
CC(=O)/C=C/c1ccc(N(CCO)Cc2ccc(C(C)(C)C)cc2)cc1 : 208 µM
CCOC(=O)c1ccn2c(c1)c(C#N)c1nc3ccccc3nc12 : > 100 µM
CCC(=O)CCC1=Nc2nnc(CCCCc3nnc4n3C(=O)C(CCC(=O)CC)=N4)n2C1=O : > 100 µM
COc1ccc(/C=C/c2nc(=S)[nH][nH]2)cc1OC : > 100 µM

## Input Given the molecule CNC(=O)NCCN1N=C(C)/C(=C\c2ccccc2)CC1=O , what is its reported TGI?
## Output > 100 µM

## Input Given the molecule FC(F)(F)c1nc(Br)[nH]c1C(F)(F)F , what is its reported TGI?
## Output > 100 µM

## Input Given the molecule CC12CCC(=O)[C@@]1(C)CCCC2O (stereo partly specified) , what is its reported TGI?
## Output > 100 µM

## Input Given the molecule COc1cc(/C=N/n2c(C)n[nH]c2=O)cc(OC)c1OC , what is its reported TGI?
## Output > 100 µM

## Input Given the molecule CC(C)(C)OC1=C(OC(C)(C)C)C(O)(c2ccc(Cl)cc2)C1=O (stereo unspecified) , what is its reported TGI?
## Output > 100 µM

## Input Given the molecule CC1=NNC(=O)C1C1C=C(c2c[nH]c3ccccc23)OC1=O (stereo unspecified) , what is its reported TGI?
## Output > 100 µM

## Input Given the molecule O=Cc1ccc(-c2ccc(S(=O)(=O)O)cc2)o1 , what is its reported TGI?
## Output > 100 µM

## Input Given the molecule NCCCNc1nc2ccccc2c2c(=O)c3cc(F)cc(Cl)c3sc12 , what is its reported TGI?
## Output 3.32 µM

## Input Given the molecule O=C1CCc2ccc(O)c(c2)Oc2ccc(cc2)[C@@H]2O[C@@H]2CO1 , what is its reported TGI?
## Output 62.1 µM

## Input Given the molecule CC[C@]1(Cc2ccc(OC)c(OC)c2)C=[N+]([O-])O[C@H](OCc2ccccc2)[C@@H]1OC(C)=O , what is its reported TGI?
## Output 52.9 µM

## Input Given the molecule Oc1ccc(/C=N/NC(=S)Nc2cccnc2)nc1 , what is its reported TGI?
## Output 9.12 µM

---

Test system: HT29 colon
assay_details: NCI tumour cell line growth inhibition, 48 h
Reported TGI values are given for each entry in this list.

Example entries begin here.
C[Si](C)(C)/C=C/CN1C(=O)CCC1=O : > 100 µM
COc1cc2c(cc1O)C(=O)O[C@@H]1CC=C3CCN(C)[C@H]3[C@H]21 : > 25 µM
CC1(C)CCC[C@@]2(C)C1CC[C@@]1(CO1)[C@@H]2/C=C\C(C=O)CC=O (some centres undefined) : > 100 µM
O=C1NC(N2CCCCC2)=N/C1=C\c1ccco1 : > 100 µM
Cc1nccn1CC1CCc2c(c3ccccc3n2C)C1=O (centres undefined) : 49.2 µM

## Input Given the compound CCC(C(=O)[C@@H](C)[C@@H](O)[C@H](C)[C@@H]1O[C@@H]([C@@H](CC)C(=O)ONC(=O)c2ccccc2)CC[C@@H]1C)[C@H]1O[C@]2(C=CC(=O)[C@]3(CC[C@@](C)([C@H]4CC[C@](O)(CC)[C@H](C)O4)O3)O2)[C@H](C)C[C@@H]1C (some centres undefined) , what is its reported TGI?
## Output 2.1 µM

## Input Given the compound CNC(=O)NCCN1N=C(C)/C(=C\c2ccccc2)CC1=O , what is its reported TGI?
## Output > 100 µM

## Input Given the compound N#CC(C#N)=C1CCC2C(=C(C#N)C#N)CCC12 (centres undefined) , what is its reported TGI?
## Output > 100 µM

## Input Given the compound Oc1cccc2ccc(Br)nc12 , what is its reported TGI?
## Output > 100 µM

## Input Given the compound CC(O)C1OC(n2ccc(=O)[nH]c2=O)CC1n1cncn1 (centres undefined) , what is its reported TGI?
## Output > 100 µM

## Input Given the compound COc1cc(-c2ccccc2)cn2c1nc1ccccc12 , what is its reported TGI?
## Output 35.5 µM

## Input Given the compound CC[Si](CC)(CC)OC1[C@@H](O[Si](CC)(CC)CC)[C@@H](CNC(=O)NC)O[C@H]1n1cnc2c(NC(=O)Nc3ccccc3)ncnc21 (some centres undefined) , what is its reported TGI?
## Output 6.13 µM

## Input Given the compound CCOC(=O)c1csc(-c2cn(C)c3c2C(=O)C(OC)=CC3=O)n1 , what is its reported TGI?
## Output > 100 µM

## Input Given the compound O=C(NCCN(CCNC(=O)c1cccc(=O)n1O)CCNC(=O)c1cccc(=O)n1O)c1cccc(=O)n1O , what is its reported TGI?
## Output > 100 µM

---

Tested on: OVCAR-5 ovarian
assay_details: NCI tumour cell line growth inhibition, 48 h
readout_type: TGI

O=C(O)c1cc(Cl)cc(Cc2cc(Cl)cc(C(=O)O)c2O)c1O : > 100 µM
O=C(O)CCC(NC(=O)c1ccc(CNc2nc3cc(C(F)(F)F)ccc3nc2C(=O)O)cc1)C(=O)O (centres undefined) : > 100 µM
CCCCC[C@H]1C/C=C2/C(=O)C(Cl)=C[C@@H]2C/C=C\CCCC(=O)O1 : 1.4 µM

## Input Given the molecule CC(=O)OCC1=CC2CCC3C(C)(CCC[C@]3(C)COC(C)=O)C23CC[C@H]1C3 (some centres undefined) , what is its reported TGI?
## Output > 100 µM

## Input Given the molecule NC(Cc1c[nH]c2cccc(F)c12)C(=O)O (centres undefined) , what is its reported TGI?
## Output > 4500 µM

## Input Given the molecule O=C(COc1cccc(/C=C2\Oc3ccc4ccccc4c3C2=O)c1)c1ccc([N+](=O)[O-])cc1 , what is its reported TGI?
## Output > 100 µM

## Input Given the molecule Cc1ccc2c(c1)CC1(C2)Cc2ccc(C)cc2C1=O (centres undefined) , what is its reported TGI?
## Output > 100 µM

## Input Given the molecule CC1OC(CC2C=CCc3c(O)c4c(c(O)c32)C(=O)c2ccccc2C4=O)CC(NC(=O)C(F)(F)F)C1O (centres undefined) , what is its reported TGI?
## Output > 100 µM

## Input Given the molecule O=c1[nH]c2ccccc2n1C1CCN(CCOc2ccccc2)CC1 , what is its reported TGI?
## Output > 100 µM

---

Tested on: EKVX NSCLC
assay_details: NCI tumour cell line growth inhibition, 48 h
Reported GI50 values are given for each entry in this list.

COc1ccc(-c2nnc(Nc3nc(O)c(C4=c5cc(Br)ccc5=NC4=O)s3)o2)cc1 : 9.89 µM

## Input EKVX NSCLC / GI50 / CCC(=C(c1ccc(OCCN2CCCC2)cc1)c1ccc(OCCN2CCCC2)cc1)c1ccc(Cl)cc1 : value?
## Output 0.666 µM

## Input EKVX NSCLC / GI50 / Nc1cc(N)c2nc(-c3ccccc3)c(NCc3ccc(Cl)c(Cl)c3)nc2c1 : value?
## Output 10.9 µM

## Input EKVX NSCLC / GI50 / CCOC(=O)c1ccc(NC(=O)c2cccc(NC3=C(Cl)C(=O)N(Cc4ccccc4)C3=O)c2)cc1 : value?
## Output > 100 µM

---

Reported TGI values are given for each entry in this list.
Test system: SN12C renal
assay_details: NCI tumour cell line growth inhibition, 48 h

CC(=N\O)/C(C)=N/O.CC(=N\O)/C(C)=N/O.[Fe].[NH2-].c1c[nH]cn1 : > 100 µM
Cc1ccc2c(c1)CC1(C2)Cc2ccc(C)cc2C1=O (configuration not stated) : > 100 µM
Oc1cccc2ccc(Br)nc12 : > 100 µM
CC1(C)CN(CCNc2nccc(-c3c(-c4cccc(O)c4)nc4sccn34)n2)S(=O)(=O)N1 : > 33.2 µM
O=C(O)CCC(NC(=O)c1ccc(Oc2nc3ccccc3nc2-c2ccccc2)cc1)C(=O)O (configuration not stated) : > 100 µM
C(=C\c1ccc(OCC2CO2)cc1)/C1=NCOC1 (configuration not stated) : 25.9 µM
CCN1C/C(=C\c2ccc(Cl)cc2)c2[nH]c(=O)c(C#N)c(-c3ccc(Cl)cc3)c2C1 : > 100 µM
COc1cc(C(=O)OC2CC34CCNC35CC(OC5(OC)C2O)c2cc3c(cc24)OCO3)ccc1O (configuration not stated) : > 100 µM

## Input Given the compound Clc1ccc(N2N=C(c3cccc(Nc4ccncc4)c3)CC2c2ccc(Br)cc2)cc1 (configuration not stated) , what is its reported TGI?
## Output 3.21 µM

## Input Given the compound COc1ccc2[nH]c3c(O)c(-c4c(C)cc5c([nH]c6ccc(OC)cc65)c4O)c(C)cc3c2c1 , what is its reported TGI?
## Output 8.17 µM

## Input Given the compound O=C(OCc1ccccc1)n1cccc1 , what is its reported TGI?
## Output > 100 µM

## Input Given the compound COc1cccc(-c2nn(-c3ccccc3)cc2-c2ccnc(NCCCNS(=O)(=O)c3ccc(C(F)(F)F)cc3)c2)c1 , what is its reported TGI?
## Output > 100 µM

## Input Given the compound Nc1ncnc2c1ncn2CCCCC(=O)O , what is its reported TGI?
## Output > 100 µM

## Input Given the compound O=c1[nH]c2ccccc2n1C1CCN(CCOc2ccccc2)CC1 , what is its reported TGI?
## Output > 100 µM

## Input Given the compound CCSCCCC(=O)O , what is its reported TGI?
## Output > 100 µM

## Input Given the compound N/C(=N/S(=O)(=O)c1cc(C(=O)Nc2ccc(F)cc2)c(Cl)cc1SCc1ccccc1)Nc1ccccc1O , what is its reported TGI?
## Output 3.7 µM

## Input Given the compound Nc1nc(N)c(-c2ccc(Cl)c(Cl)c2)c(CP(Cl)(Cl)(Cl)Br)n1 , what is its reported TGI?
## Output > 100 µM
